# key: entry, value: TGI
- Test system: MCF7
- TEST DESCRIPTION: Growth inhibition of human MCF7 cells incubated for 48 hrs by sulforhodamine B assay
- Assay type: functional, cell-based
- CONDITION PARAMETERS: MCF7, 48 h, read-out: TGI
Write it as a number; the unit µM goes unstated.

[[record]]
smiles_str = "O=C(Nc1cccc(-n2cc(-c3ccncc3)c(-c3cc(O)cc(Cl)c3)n2)c1)Nc1ccc(Cl)c(C(F)(F)F)c1"
assayed_system = "MCF7"
value_kind = "TGI"
readout_number = 85.4


Now for a further compound.
Q: What value of TGI has been reported for the following compound? `CNC(=O)c1cc(Oc2ccc(NC(=O)Nc3ccc(Cl)c(C(F)(F)F)c3)cc2)ccn1`
Ans: 7.94

###

- System: M14
- TEST DESCRIPTION: Growth inhibition of human M14 cells assessed as cell growth at 100 uM incubated for 48 hrs by sulforhodamine B assay relative to control
- Format: functional
- CONDITION PARAMETERS: M14, 48 h, read-out: Activity
VALUE KIND: growth at 100 µM (%)
Write it as a number; the unit % goes unstated.

Past entries and their recorded results:
[[record]]
smiles_str = "COc1cc(Cl)cc(-c2nn(-c3cccc(NC(=O)Nc4cccc(C(F)(F)F)c4)c3)cc2-c2ccncc2)c1"
readout_number = -78

[[record]]
smiles_str = "O=C(Nc1cccc(-n2cc(-c3ccncc3)c(-c3cc(O)cc(Cl)c3)n2)c1)Nc1ccc(Cl)c(Cl)c1"
readout_number = -69

[[record]]
smiles_str = "COc1cc(Cl)cc(-c2nn(-c3cccc(NC(=O)Nc4ccc(Cl)c(Cl)c4)c3)cc2-c2ccncc2)c1"
readout_number = -36


Now for a further compound.
Q: What value of growth at 100 µM has been reported for the following compound? `O=C(Nc1cccc(-n2cc(-c3ccncc3)c(-c3cc(O)cc(Cl)c3)n2)c1)c1ccc(N2CCOCC2)c(C(F)(F)F)c1`
Ans: -54

###

- Tested on: OVCAR-3
- TEST DESCRIPTION: Growth inhibition of human OVCAR3 cells incubated for 48 hrs by sulforhodamine B assay
- Type: functional, cell-based
- CONDITION PARAMETERS: OVCAR-3, 48 h, read-out: GI50
# key: entry, value: GI50
Write it as a number; the unit µM goes unstated.

Past entries and their recorded results:
[[record]]
smiles_str = "O=C(Nc1cccc(-n2cc(-c3ccncc3)c(-c3cc(O)cc(Cl)c3)n2)c1)c1cc(C(F)(F)F)cc(C(F)(F)F)c1"
assayed_system = "OVCAR-3"
value_unit = "µM"
readout_number = 3.28

[[record]]
smiles_str = "O=C(Nc1cccc(-n2cc(-c3ccncc3)c(-c3cc(O)cc(Cl)c3)n2)c1)c1ccc(N2CCOCC2)c(C(F)(F)F)c1"
assayed_system = "OVCAR-3"
value_unit = "µM"
readout_number = 7.2

[[record]]
smiles_str = "O=C(Nc1cccc(-n2cc(-c3ccncc3)c(-c3cc(O)cc(Cl)c3)n2)c1)Nc1ccc(Cl)c(Cl)c1"
assayed_system = "OVCAR-3"
value_unit = "µM"
readout_number = 1.96


Now for a further compound.
Q: What value of GI50 has been reported for the following compound? `COc1cc(Cl)cc(-c2nn(-c3cccc(NC(=O)c4ccc(N5CCOCC5)c(C(F)(F)F)c4)c3)cc2-c2ccncc2)c1`
Ans: 5.31

###

- Test system: OVCAR-5
- TEST DESCRIPTION: Growth inhibition of human OVCAR5 cells assessed as cell growth at 10 uM incubated for 48 hrs by sulforhodamine B assay relative to control
- Type: functional
- CONDITION PARAMETERS: OVCAR-5, 48 h, read-out: Activity
VALUE KIND: growth at 10 µM (%)
Write it as a number; the unit % goes unstated.

Past entries and their recorded results:
[[record]]
smiles_str = "COc1cc(Cl)cc(-c2nn(-c3cccc(NC(=O)c4cccc(C(F)(F)F)c4)c3)cc2-c2ccncc2)c1"
readout_number = 84

[[record]]
smiles_str = "O=C(Nc1cccc(-n2cc(-c3ccncc3)c(-c3cc(O)cc(Cl)c3)n2)c1)Nc1ccc(Cl)c(Cl)c1"
readout_number = -2.26

[[record]]
smiles_str = "COc1cc(Cl)cc(-c2nn(-c3cccc(NC(=O)Nc4cc(C(F)(F)F)cc(C(F)(F)F)c4)c3)cc2-c2ccncc2)c1"
readout_number = 21.6


Now for a further compound.
Q: What value of growth at 10 µM has been reported for the following compound? `COc1cc(Cl)cc(-c2nn(-c3cccc(NC(=O)Nc4ccc(Cl)c(C(F)(F)F)c4)c3)cc2-c2ccncc2)c1`
Ans: 19.2

###

- Tested on: T47D
- TEST DESCRIPTION: Growth inhibition of human T47D cells incubated for 48 hrs by sulforhodamine B assay
- Format: functional, cell-based
- CONDITION PARAMETERS: read-out: GI50
# key: entry, value: GI50
Entry format: amount then unit.

Past entries and their recorded results:
[[record]]
smiles_str = "COc1cc(Cl)cc(-c2nn(-c3cccc(NC(=O)Nc4ccc(Cl)c(Cl)c4)c3)cc2-c2ccncc2)c1"
assayed_system = "T47D"
result = "2780 nM"

[[record]]
smiles_str = "COc1cc(Cl)cc(-c2nn(-c3cccc(NC(=O)c4ccc(N5CCOCC5)c(C(F)(F)F)c4)c3)cc2-c2ccncc2)c1"
assayed_system = "T47D"
result = "1040 nM"

[[record]]
smiles_str = "O=C(Nc1cccc(-n2cc(-c3ccncc3)c(-c3cc(O)cc(Cl)c3)n2)c1)c1cc(C(F)(F)F)cc(C(F)(F)F)c1"
assayed_system = "T47D"
result = "2990 nM"

[[record]]
smiles_str = "COc1cc(Cl)cc(-c2nn(-c3cccc(NC(=O)Nc4cc(C(F)(F)F)cc(C(F)(F)F)c4)c3)cc2-c2ccncc2)c1"
assayed_system = "T47D"
result = "390 nM"

[[record]]
smiles_str = "COc1cc(Cl)cc(-c2nn(-c3cccc(NC(=O)Nc4ccc(Cl)c(C(F)(F)F)c4)c3)cc2-c2ccncc2)c1"
assayed_system = "T47D"
result = "1250 nM"


Now for a further compound.
Q: What value of GI50 has been reported for the following compound? `O=C(Nc1cccc(-n2cc(-c3ccncc3)c(-c3cc(O)cc(Cl)c3)n2)c1)Nc1ccc(Cl)c(C(F)(F)F)c1`
Ans: 2440 nM

###

# key: entry, value: TGI
- System: M14
- TEST DESCRIPTION: Growth inhibition of human M14 cells incubated for 48 hrs by sulforhodamine B assay
- Assay type: functional, cell-based
- CONDITION PARAMETERS: M14, 48 h, read-out: pTGI (converted)
Write it as a number; the unit nM goes unstated.

[[record]]
smiles_str = "O=C(Nc1cccc(-n2cc(-c3ccncc3)c(-c3cc(O)cc(Cl)c3)n2)c1)c1ccc(N2CCOCC2)c(C(F)(F)F)c1"
value_kind = "TGI"
readout_number = 2750


Q: Query TGI on M14 for `COc1cc(Cl)cc(-c2nn(-c3cccc(NC(=O)Nc4cc(C(F)(F)F)cc(C(F)(F)F)c4)c3)cc2-c2ccncc2)c1`
Ans: 2140

###

- System: T47D
- TEST DESCRIPTION: Growth inhibition of human T47D cells incubated for 48 hrs by sulforhodamine B assay
- Type: functional, cell-based
- CONDITION PARAMETERS: read-out: pTGI (converted)
VALUE KIND: log10 TGI (log10 of the value in µM)
Hey, these are logged values: log10 of TGI, µM being the unit before logging.

Past entries and their recorded results:
[[record]]
smiles_str = "O=C(Nc1cccc(-n2cc(-c3ccncc3)c(-c3cc(O)cc(Cl)c3)n2)c1)c1cc(C(F)(F)F)cc(C(F)(F)F)c1"
assayed_system = "T47D"
value_kind = "log10 TGI"
readout_number = 1.98

[[record]]
smiles_str = "COc1cc(Cl)cc(-c2nn(-c3cccc(NC(=O)Nc4ccc(Cl)c(Cl)c4)c3)cc2-c2ccncc2)c1"
assayed_system = "T47D"
value_kind = "log10 TGI"
readout_number = 1.28

[[record]]
smiles_str = "COc1cc(Cl)cc(-c2nn(-c3cccc(NC(=O)Nc4cccc(C(F)(F)F)c4)c3)cc2-c2ccncc2)c1"
assayed_system = "T47D"
value_kind = "log10 TGI"
readout_number = 0.84

[[record]]
smiles_str = "COc1cc(Cl)cc(-c2nn(-c3cccc(NC(=O)Nc4cc(C(F)(F)F)cc(C(F)(F)F)c4)c3)cc2-c2ccncc2)c1"
assayed_system = "T47D"
value_kind = "log10 TGI"
readout_number = 0.62


Now for a further molecule.
Q: What value of log10 TGI has been reported for the following molecule? `COc1cc(Cl)cc(-c2nn(-c3cccc(NC(=O)Nc4ccc(Cl)c(C(F)(F)F)c4)c3)cc2-c2ccncc2)c1`
Ans: 0.90

###

- Tested on: PC-3
- TEST DESCRIPTION: Growth inhibition of human PC3 cells incubated for 48 hrs by sulforhodamine B assay
- Assay type: functional, cell-based
- CONDITION PARAMETERS: PC-3, 48 h, read-out: pTGI (converted)
# key: entry, value: TGI
Write it as a number; the unit nM goes unstated.

Past entries and their recorded results:
[[record]]
smiles_str = "COc1cc(Cl)cc(-c2nn(-c3cccc(NC(=O)Nc4cc(C(F)(F)F)cc(C(F)(F)F)c4)c3)cc2-c2ccncc2)c1"
readout_number = 1620

[[record]]
smiles_str = "COc1cc(Cl)cc(-c2nn(-c3cccc(NC(=O)Nc4cccc(C(F)(F)F)c4)c3)cc2-c2ccncc2)c1"
readout_number = 3240


Now for a further molecule.
Q: What value of TGI has been reported for the following molecule? `COc1cc(Cl)cc(-c2nn(-c3cccc(NC(=O)Nc4ccc(Cl)c(C(F)(F)F)c4)c3)cc2-c2ccncc2)c1`
Ans: 2140
